Molecular target: HLA-B*39:01
Assay: IEDB peptide-MHC binding, purified MHC/direct/fluorescence; filed as Kd, often an IC50 or EC50 that approximates it; bounds were set here for any values at or beyond the usual limits of such assays
Settings: source organism: Mycobacterium tuberculosis str. Haarlem
endpoint: Kd

**Query** Param item = SPRSRNRSF ; retrieve measured Kd.
**Result** ≥ 20 µM

**Query** Check APAKKAAPA too.
**Result** ≥ 20 µM

====

Molecular target: HLA-A*02:03
Test: IEDB peptide-MHC binding, purified MHC/direct/fluorescence; filed as Kd, often an IC50 or EC50 that approximates it; bounds were set here for any values at or beyond the usual limits of such assays
Conditions: source organism: Bacillus anthracis str. A0465
endpoint: Kd

**Query** Param item = RLLRFTGLF ; retrieve measured Kd.
**Result** ≥ 20 µM

====

Target: HLA-A*02:02
Test: IEDB peptide-MHC binding, purified MHC/competitive/radioactivity; filed as Kd, often an IC50 or EC50 that approximates it; bounds were set here for any values at or beyond the usual limits of such assays
Settings: source organism: Mammarenavirus tacaribeense
endpoint: pKd
# reply with the number alone; pKd is -log10 of concentration in mol/L

**Query** Under HLA-A*02:02: pKd value of INISGYNLSL ?
**Result** 6.75

**Query** Check KSFFWFNEV too.
**Result** 7.21

====

Molecular target: HLA-A*33:01
Assay: IEDB peptide-MHC binding, purified MHC/competitive/radioactivity; filed as Kd, often an IC50 or EC50 that approximates it; bounds were set here for any values at or beyond the usual limits of such assays
Details: source organism: Dengue virus 3 Martinique/1243/1999
endpoint: Kd (µM)
Quick note: give the figure in µM, leave out the unit.

**Query** Under HLA-A*33:01: Kd value of TWMSAEGAWR ?
**Result** 0.375

====

Biological target: HLA-A*24:03
Experiment: IEDB peptide-MHC binding, purified MHC/competitive/fluorescence; filed as Kd, often an IC50 or EC50 that approximates it; bounds were set here for any values at or beyond the usual limits of such assays
Conditions: source organism: Salmonella enterica subsp. enterica serovar Paratyphi A str. AKU_12601
pKd: −log10 of the molar value.
endpoint: pKd

**Query** Under HLA-A*24:03: pKd value of AMDTHLYFE ?
**Result** ≤ 4.70

====

Biological target: HLA-A*24:02
Experiment: IEDB peptide-MHC binding, purified MHC/competitive/fluorescence; bounds were set here for any values at or beyond the usual limits of such assays
Conditions: source organism: Vaccinia virus WR
endpoint: IC50 (µM)
Quick note: give the figure in µM, leave out the unit.

**Query** Param item = NGTLEFTPI ; retrieve measured IC50.
**Result** 23.1

====

Biological target: HLA-B*44:02
Assay: IEDB peptide-MHC binding, purified MHC/competitive/radioactivity; filed as Kd, often an IC50 or EC50 that approximates it; bounds were set here for any values at or beyond the usual limits of such assays
Conditions: source organism: SARS coronavirus Tor2
endpoint: Kd (nM)
Quick note: give the figure in nM, leave out the unit.

**Query** Param item = REGVFVFNGT ; retrieve measured Kd.
**Result** 1600

**Query** Check QELYSPLFLI too.
**Result** 7.01

**Query** Check FELTSMKYFV too.
**Result** 7160

**Query** Check FEKMVSLLSV too.
**Result** 3280

**Query** Check SEAPNAKEEI too.
**Result** 105
